Subject of test: T1, human GPC3-His protein (human, UniProt P51654 25-559)
T1 construct: Bought protein; also called human GPC3 protein; not shown: His tag
Method summary: ELISA, coated human GPC3, antibody 10 nM;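 further: plate coated with antigen at 1 µg/mL, antibodies bound 2 h at 37 °C, detected via HRP-conjugated secondary antibody and TMB substrate, absorbance read after acid stop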
# label = met if OD450 nm < 2 OD450 else not met

- Binder: "F1.2.14 human-murine chimeric antibody (antibody, human IgG1, kappa, V domains shown) VH: RVQLQQSGAELVKPGASVRMSCKASGYTFTAYSIEWMKQNLGKSLEWIGNFRPYNDDTKYNENFKGRATLTVEKSSATVYLELSRLTSDDSAVYYCARSGPTDYFDYWGQGTTLIVSS VL: DIQMTQSPASLSASVGETVTITCRASDNIYSYLAWYQQKQGQSPQLLVYNAKTLAEGVPSRFSGSGSVTQFSLKIISLQPEDFGTYYCQHHFGTPRTFGGGTKLEIKR"
  Category label: "met"
- Binder: "F1.42.8 human-murine chimeric antibody (antibody, human IgG1, kappa, V domains shown) VH: HVQLQQPGAELVKPGASVKLSCKASGYTFTSYWMHWVRQRPGQGLEWIEMIHPNSGSTNYNEKFKSKATLTVDKSSSTAYMQLSSLTSEDSAVYYCARGNYNSSLYAMDYWGQGTSVTVSS VL: DIQMTQTTSSLSASLGDRVTISCSASQGISNYLNWYQQKPDGTVKLLIYYASNLHSGVPSRFSGSGSGTAYSLTISNLEPEDIATYYCQQYSILPYTFGGGTKLEIKR"
  Category label: "not met"
- Binder: "F1.115.8 human-murine chimeric antibody (antibody, human IgG1, kappa, V domains shown) VH: EVQLQQSGPELVKPGASVKMSCKASGYTFTEYYMHWVKQSHGKSLEWIGYIYPNNGGNGYNQKFKGKATLTVDKSSSTAYMGLRSLTSEDSAVYYCVRGYYSNWYFDVWGTGTTVTVSS VL: DVLMTQTPLSLPVSLGDQASISCRSSQSIVHSNGKTYLEWYLQKPGQSPKLLIYKVSNRFSGVPDRFSGSGSGTDFTLKISRVEAEDLGVYYCFQGSHVPFTFGSGTKLEIKR"
  Category label: "met"
- Binder: "F2.39.2 human-murine chimeric antibody (antibody, human IgG1, kappa, V domains shown) VH: QVQLQQSGAELVRPGASVKVSCKASGYTFTDYEMHWMKQTPVHGLEWIGANEPETGRSAYDQKFKGKATLTADKSSSTAYMELRSLTSEDSAVYYCTRFYSFAYWGQGTLVTVSA VL: DVVMTQTPLSLPVSLGDQASISCRSSQGLVHNNGNTYLHWYLQKPGQSPKLLIYKVSNRFSGVPDRFSGSGSGTDFTLKISRVEAEDLGVYFCSQNTHVPPTFGGGTKLEIKR"
  Category label: "not met"
- Binder: "F1.118.4 human-murine chimeric antibody (antibody, human IgG1, kappa, V domains shown) VH: QVQLQQSGAELAKPGASVKLSCKASGYSFTSYWIHWVKQRPGQGLEWIGYINPSSGYTKYNQKFKDKATLTADKSSSTAYMQLSSLTYEDSAVYYCARFGSSSFYFDYWGQGTTLTVSS VL: DIVLTQSPASLAVSLGQRATISCRASQSVSSSSYSYMHWYQQKPGQPPKLLIKYASNLDSGVPARFSGSGSGTDFTLNIHPVEEEDTATYYCQHSWEIPAFGGGTKLEIKR"
  Category label: "met"
- Binder: "F2.92.1 human-murine chimeric antibody (antibody, human IgG1, kappa, V domains shown) VH: QVQLQQSGAELVRPGASVKLSCKASGYIFSDYEIHWVKQTPVHGLECIGAVDPETGGTAYNQKFKGKATLTADKSSSTAYMELRSLTSEDSAVYFCTRFYSFAYWGQGTLVTVST VL: DVVMTQTPLSLPVSLGDQGSISCRSSQSLVHSNGNTYLQWYLQKPGQSPKLLIYKVSNRFSGVPDRFSGSGSGTDFTLKISRVEAEDLGVYFCCQSTHVLPTFGGGTKLEIKR"
  Category label: "not met"
- Binder: "F3.81.19 human-murine chimeric antibody (antibody, human IgG1, kappa, V domains shown) VH: QVQLQQSGAELVRPGASVKLSCKASGYTFTDYEMHWVKQTPVHGLEWIGTIDPETGNTAYNQKFKGKATLTADKSSSTAYMELRSLTSEDSAVYYCTRPYSLTYWGQGTLVTVSA VL: DVLLTQTPLSLPVSLGDQASISCRSSQSFVHSNGDTYLQWYLQKPGQSPKLLIYKVSNRFSGVPDRFSGSGSGTDFTLKISRVEAEDLGVYYCFQGSHVPYTFGSGTKLEIKR"
  Category label: "not met"
- Binder: "F1.9.19 human-murine chimeric antibody (antibody, human IgG1, kappa, V domains shown) VH: DVQLQESGPGLVKPSQSLSLTCSVTGYSITSGYYWNWIRQFPGNRLEWMAYISYDGINNYNPSLKNRISIARDTSTNQFFLKLNSVTSEDTATYYCATTTEVALFDHWGQGTTLTVSS VL: DVLLTQTPLSLPVSLGDQASISCRSSQNIVHGNGNTYLEWFLQKPGQSPKLLIYKVSNRFSGVPDRFSGSGSGTDFTLKISRVEAEDLGLYYCFQASHVPWTFGGGTKLEIKR"
  Category label: "met"
- Binder: "F4.18.4 human-murine chimeric antibody (antibody, human IgG1, kappa, V domains shown) VH: QVQLHQSGAEMAKPGASVNLSCKTSGFTFTDYGISWVKQRTRQGLEWIGDIYPRHINIYYNEKFKDKATLTADRSSSTAYMELRSMTSEDSAVYFCARRGTTGRGALDYWGQGTSLTVSS VL: DILLTQSPAILSVSPGERVSFSCRASQSIGTSIHWYQQRTNGSPRLLIKYAFESISGIPSRFGGSGSRTDFTLTINSVESEDIADYYCQQTYNWPYTFGGGTKLEIKR"
  Category label: "met"

Switching to the query record.
Task: # check: OD450 nm < 2 OD450 for F1.41.17 human-murine chimeric antibody (antibody, human IgG1, kappa, V domains shown) VH: EVQLVESGGDSVKPGGSLKLSCAASGFTFSSYGMSWVRQTPDKRLEWVATINSGGSYTYYQDSVKGRFTISRDNAKNTLYLQMSSLKSEDTAIYYCVRHHYGSSYDYFDYWGQGTTLTVSS VL: DIVMTQAAPSVPVMPGESVSISCRSSKSLLHSNGNTHLYWFLQRPGQSPQLLIYRMSNLASGVPDRFSGSGSGTAFTLRISRVEAEDVGVYYCMQHLEYPLTFGAGTKLELKR
Result: met
